System: Wild type
Test: S. aureus survival, RN4220 and DeltatarO strains – OD600, teichoic acid synthesis inhibitors, primary screen (AID 463173)
Settings: S. aureus RN4220 wild type/DeltatarO growth, OD600, 18 h, active compounds read low, screened at 18.75 µg/mL (by protocol)
Screen size: about 52,000 compounds; about 1,700 (3.3%) were called active. The sample holds actives, similar compounds and a random draw of the others, so the mix is not that of the screen.
Output y for records whose survival is lower than 60%, n for records at or above 60%.

For orientation, consider the following solved cases.
compound=COc1cccc(-n2c(=O)c3c4c(sc3n(Cc3ccccc3C#N)c2=O)CCCC4)c1 category_label=n
compound=COc1ccc(OCC(=O)Nc2ccc(-c3nc4ncccc4o3)cc2)cc1 category_label=n
compound=Cc1oc2ncn(CC(C)C)c(=O)c2c1C(=O)Nc1cccc(C(F)(F)F)c1 category_label=y
compound=COc1cccc(NS(=O)(=O)c2ccc3[nH]cc(C(=O)NCCc4ccc(C)cc4)c(=O)c3c2)c1 category_label=n
compound=O=C(COc1ccc(Cl)cc1Cl)Nc1ccc(C(=O)OC2CCCCC2)cc1 category_label=n

Query: Consider Cc1ccc(C(=O)Nc2ccc(-n3c(C)nc4ccccc4c3=O)cc2)cc1[N+](=O)[O-] . Does its survival lie strictly below 60%?
Response: n

Query: Consider C/C(=N\NC(=O)COc1ccccc1)C1C(=O)c2ccccc2C1=O . Does its survival lie strictly below 60%?
Response: n

Query: Consider CCOc1ccc(CNC(=O)CCn2nc(C)c3c(C)n(-c4ccccc4)nc3c2=O)cc1 . Does its survival lie strictly below 60%?
Response: n

Query: Consider COc1ccc(C(CC(=O)Nc2cc(OC)c(OC)c(OC)c2)N2Cc3ccccc3C2=O)cc1 (stereo not given) . Does its survival lie strictly below 60%?
Response: n

Query: Consider CCC(C)c1ccc(OCC(=O)Nc2cccc(-c3nc4ncccc4o3)c2)cc1 (stereo not given) . Does its survival lie strictly below 60%?
Response: y

Query: Consider Cc1cc(OCC(=O)Nc2ccc(C(=O)OC3CCCCC3)cc2)cc(C)c1Cl . Does its survival lie strictly below 60%?
Response: y

Query: Consider Cc1ccccc1OCC(=O)Nc1ccc(-c2nc3ncccc3o2)cc1 . Does its survival lie strictly below 60%?
Response: n

Query: Consider COc1ccc(NC(=O)CSc2nnc(NC(=O)NC3CCCCC3)s2)cc1OC . Does its survival lie strictly below 60%?
Response: n

Query: Consider Cc1cccc(OCC(=O)Nc2ccc(Cl)c(-c3nc4ncccc4o3)c2)c1C . Does its survival lie strictly below 60%?
Response: y

Query: Consider Cc1cc(-n2c(C)nc3ccccc3c2=O)ccc1NC(=O)c1ccc(C)c([N+](=O)[O-])c1 . Does its survival lie strictly below 60%?
Response: y
